// provenance: patent US20070099851A1

target: Fructose-1,6-bisphosphatase (Homo sapiens, UniProt P09467); assay: Inhibition of fructose-1,6-bisphosphatase; assay type: biochemical; settings: At 5 μM Fru-1,6-bisphosphate
Sequence (P09467 2-338 limits assumed): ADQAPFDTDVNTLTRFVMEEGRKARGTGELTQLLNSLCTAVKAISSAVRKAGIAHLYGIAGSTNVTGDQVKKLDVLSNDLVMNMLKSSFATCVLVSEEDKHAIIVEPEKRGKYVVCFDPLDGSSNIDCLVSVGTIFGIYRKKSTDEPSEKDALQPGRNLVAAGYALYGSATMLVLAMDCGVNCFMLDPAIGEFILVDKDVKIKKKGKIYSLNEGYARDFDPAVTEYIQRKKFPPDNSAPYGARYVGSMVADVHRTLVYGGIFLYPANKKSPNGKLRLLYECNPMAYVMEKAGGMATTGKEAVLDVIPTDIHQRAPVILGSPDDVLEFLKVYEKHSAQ
Reported Ki values follow for various compounds
Give just the numeric value; µM need not be written.

{"columns": ["compound", "Ki / µM"],
 "data": [
  ["O=P(O)(O)CC1OC(COP(=O)(O)O)C(O)C1O (centres unmarked) [Compound 2.1, 5-phosphoribosyl-1-methylenephosphonate]", 87]
]}

The record that follows has no Ki shown yet.
Query :: Tell me its Ki given O=P(O)(O)OC[C@H]1OC(OP(=O)(O)O)[C@H](O)[C@@H]1O (some centres unmarked) [ribose-1,5-bisphosphate, reference compound] as the entry.
Result :: 87
